The entries below come with measured MTD at 5 days values attached.
# test.method.notes: in vivo
# Set-up: species or system Balb/c male mice
# settings: male, Balb/c, mouse, ip, i.p. 5×
Numbered stars: 1 amine (or outer) side, 2 acyl side, 3 side chain; on linkers, the order of the positions; unused ones are H or OH. Peptide text beside a SMILES is read from it. * marks the point of attachment. Doxorubicin(3'-N) = COc1cccc2c1C(=O)c1c(O)c3c(c(O)c1C2=O)C[C@@](O)(C(=O)CO)C[C@@H]3O[C@H]1C[C@H](N*)[C@H](O)[C@H](C)O1; Suc = O=C(CCC(=O)[*:2])[*:1]
property.label: MTD at 5 days (µmol/kg)

molecule: COc1cccc2c1C(=O)c1c(O)c3c(c(O)c1C2=O)C[C@@](O)(C(=O)CO)C[C@@H]3O[C@H]1C[C@H](N)[C@H](O)[C@H](C)O1 [Dox, doxorubicin, reference compound]
reported.measurement: 2.8

molecule: COc1cccc2c1C(=O)c1c(O)c3c(c(O)c1C2=O)C[C@@](O)(C(=O)CO)C[C@@H]3O[C@H]1C[C@H](NC(=O)[C@H](CC(C)C)NC(=O)[C@H](CC(N)=O)NC(=O)[C@H](C)NC(=O)[C@H](C)NC(=O)CCC(=O)O)[C@H](O)[C@H](C)O1 [LEG-3] (Suc-AANL-{Doxorubicin(3'-N)})
reported.measurement: 98.7

----------
# test.method.notes: in vivo
# Set-up: species or system Balb/c male mice
# settings: male, Balb/c, mouse, ip
Numbered stars: 1 amine (or outer) side, 2 acyl side, 3 side chain; on linkers, the order of the positions; unused ones are H or OH. Peptide text beside a SMILES is read from it. * marks the point of attachment. Doxorubicin(3'-N) = COc1cccc2c1C(=O)c1c(O)c3c(c(O)c1C2=O)C[C@@](O)(C(=O)CO)C[C@@H]3O[C@H]1C[C@H](N*)[C@H](O)[C@H](C)O1; Suc = O=C(CCC(=O)[*:2])[*:1]
The entries below come with measured MTD values attached.
property.label: MTD

compound: COc1cccc2c1C(=O)c1c(O)c3c(c(O)c1C2=O)C[C@@](O)(C(=O)CO)C[C@@H]3O[C@H]1C[C@H](N)[C@H](O)[C@H](C)O1 [Dox, doxorubicin, reference compound]
property.label: MTD
reported.measurement: 9.8 µmol/kg
--
compound: COc1cccc2c1C(=O)c1c(O)c3c(c(O)c1C2=O)C[C@@](O)(C(=O)CO)C[C@@H]3O[C@H]1C[C@H](NC(=O)[C@H](CC(C)C)NC(=O)[C@H](CC(N)=O)NC(=O)[C@H](C)NC(=O)[C@H](C)NC(=O)CCC(=O)O)[C@H](O)[C@H](C)O1 [LEG-3] (Suc-AANL-{Doxorubicin(3'-N)})
property.label: MTD
reported.measurement: > 197 µmol/kg

----------
# test.method.notes: in vivo
# Design: species or system Balb/c male mice
# settings: male, Balb/c, mouse, ip, i.p. 5×
Numbered stars: 1 amine (or outer) side, 2 acyl side, 3 side chain; on linkers, the order of the positions; unused ones are H or OH. Peptide text beside a SMILES is read from it. * marks the point of attachment. Doxorubicin(3'-N) = COc1cccc2c1C(=O)c1c(O)c3c(c(O)c1C2=O)C[C@@](O)(C(=O)CO)C[C@@H]3O[C@H]1C[C@H](N*)[C@H](O)[C@H](C)O1; Suc = O=C(CCC(=O)[*:2])[*:1]
The entries below come with measured LD50 at 5 days values attached.

compound: COc1cccc2c1C(=O)c1c(O)c3c(c(O)c1C2=O)C[C@@](O)(C(=O)CO)C[C@@H]3O[C@H]1C[C@H](N)[C@H](O)[C@H](C)O1 [Dox, doxorubicin, reference compound]
sign: =
LD50 at 5 days (µmol/kg): 3.4

compound: COc1cccc2c1C(=O)c1c(O)c3c(c(O)c1C2=O)C[C@@](O)(C(=O)CO)C[C@@H]3O[C@H]1C[C@H](NC(=O)[C@H](CC(C)C)NC(=O)[C@H](CC(N)=O)NC(=O)[C@H](C)NC(=O)[C@H](C)NC(=O)CCC(=O)O)[C@H](O)[C@H](C)O1 [LEG-3] (Suc-AANL-{Doxorubicin(3'-N)})
sign: >
LD50 at 5 days (µmol/kg): 197

----------
# test.method.notes: cytotoxicity of AEPI-1 in wild type 293 cells
# Assay type: cell-based, human
# settings: human, wild type 293 cells

compound: CCOC(=O)C1OC1C(=O)N(CC(N)=O)NC(=O)[C@H](C)NC(=O)[C@H](C)NC(=O)OCc1ccccc1 (stereo partly drawn) [AEPI-1, Cbz-Ala-Ala-AzaAsn-(S,S)-EPCOOEt]
CC50 [µM]: 320

----------
# test.method.notes: in vivo
# Set-up: species or system Balb/c male mice
# settings: male, Balb/c, mouse, iv, i.v. 5×
Numbered stars: 1 amine (or outer) side, 2 acyl side, 3 side chain; on linkers, the order of the positions; unused ones are H or OH. Peptide text beside a SMILES is read from it. * marks the point of attachment. Doxorubicin(3'-N) = COc1cccc2c1C(=O)c1c(O)c3c(c(O)c1C2=O)C[C@@](O)(C(=O)CO)C[C@@H]3O[C@H]1C[C@H](N*)[C@H](O)[C@H](C)O1; Suc = O=C(CCC(=O)[*:2])[*:1]
property.label: MTD at 5 days

compound: COc1cccc2c1C(=O)c1c(O)c3c(c(O)c1C2=O)C[C@@](O)(C(=O)CO)C[C@@H]3O[C@H]1C[C@H](N)[C@H](O)[C@H](C)O1 [Dox, doxorubicin, reference compound]
reported.measurement: 3.2 µmol/kg

compound: COc1cccc2c1C(=O)c1c(O)c3c(c(O)c1C2=O)C[C@@](O)(C(=O)CO)C[C@@H]3O[C@H]1C[C@H](NC(=O)[C@H](CC(C)C)NC(=O)[C@H](CC(N)=O)NC(=O)[C@H](C)NC(=O)[C@H](C)NC(=O)CCC(=O)O)[C@H](O)[C@H](C)O1 [LEG-3] (Suc-AANL-{Doxorubicin(3'-N)})
reported.measurement: 74 µmol/kg

----------
# test.method.notes: in vivo
# Design: species or system Balb/c male mice
# settings: male, Balb/c, mouse, iv
Numbered stars: 1 amine (or outer) side, 2 acyl side, 3 side chain; on linkers, the order of the positions; unused ones are H or OH. Peptide text beside a SMILES is read from it. * marks the point of attachment. Doxorubicin(3'-N) = COc1cccc2c1C(=O)c1c(O)c3c(c(O)c1C2=O)C[C@@](O)(C(=O)CO)C[C@@H]3O[C@H]1C[C@H](N*)[C@H](O)[C@H](C)O1; Suc = O=C(CCC(=O)[*:2])[*:1]
property.label: LD50

molecule: COc1cccc2c1C(=O)c1c(O)c3c(c(O)c1C2=O)C[C@@](O)(C(=O)CO)C[C@@H]3O[C@H]1C[C@H](NC(=O)[C@H](CC(C)C)NC(=O)[C@H](CC(N)=O)NC(=O)[C@H](C)NC(=O)[C@H](C)NC(=O)CCC(=O)O)[C@H](O)[C@H](C)O1 [LEG-3] (Suc-AANL-{Doxorubicin(3'-N)})
reported.measurement: > 197 µmol/kg
--
molecule: COc1cccc2c1C(=O)c1c(O)c3c(c(O)c1C2=O)C[C@@](O)(C(=O)CO)C[C@@H]3O[C@H]1C[C@H](N)[C@H](O)[C@H](C)O1 [Dox, doxorubicin, reference compound]
reported.measurement: 25.8 µmol/kg
